# Test system: HCV genotype 1b replicon
# Assay method text: HCV replicon assay (HCV 1b_Huh-Luc/Neo-ET cell line, luciferase readout)
# Format: cell-based
# Setup conditions: Hepatitis C virus; bicistronic genotype 1b replicon in Huh 7 cells, 72 h incubation, luciferase enzyme activity; read-out: Inhibition of HCV genotype 1b
pEC50: −log10 of the molar value.
Endpoint: pEC50

Worked examples, 2 molecules total:
Compound structure: COC(=O)N[C@H](C(=O)N1CCC[C@H]1C(=O)Nc1ccc(-c2ccc(-c3cnc([C@@H]4CCCN4C(=O)[C@@H](NC(=O)OC)C(C)C)[nH]3)cc2)cc1)C(C)C
Measured target: HCV genotype 1b replicon
pEC50: 6.00 to 8.00
//
Compound structure: COC(=O)N[C@@H](C(=O)N1CCC[C@H]1CNC(=O)c1ccc(-c2ccc(-c3cnc([C@@H]4CCCN4C(=O)[C@H](NC(=O)OC)c4ccccc4)[nH]3)cn2)cc1)c1ccccc1
Measured target: HCV genotype 1b replicon
pEC50: > 9.00

Name the reported pEC50 value associated with the molecule C[C@@H](NC(=O)[C@@H]1CCCN1C(=O)[C@H](NC(=O)C1CC1)c1ccccc1)c1ccc(-c2ccc(-c3cnc([C@@H]4CCCN4C(=O)[C@H](NC(=O)C4CC4)c4ccccc4)[nH]3)cc2)cc1 > 9.00

* * *

Provide the recorded EC50 for the entries that follow.
# System: HCV genotype 1b replicon
# Assay method text: HCV replicon assay (HCV 1b_Huh-Luc/Neo-ET cell line, luciferase readout)
# Format: cell-based
# Setup conditions: Hepatitis C virus; bicistronic genotype 1b replicon in Huh 7 cells, 72 h incubation, luciferase enzyme activity; read-out: Inhibition of HCV genotype 1b

Worked examples, 4 compounds total:
Compound structure: O=C(Nc1ccc(-c2ccc(-c3cnc([C@@H]4COCCN4C(=O)[C@H](NC(=O)N4CCOCC4)c4ccccc4)[nH]3)cc2)cc1)[C@@H]1COCCN1C(=O)[C@H](NC(=O)N1CCOCC1)c1ccccc1
EC50: 1 to 9.9 nM

Compound structure: C[C@@H](NC(=O)C1CC1)C(=O)N1CCC[C@H]1C(=O)Nc1ccc(-c2ccc(-c3cnc([C@@H]4CCCN4C(=O)[C@@H](C)NC(=O)C4CC4)[nH]3)cc2)cc1
EC50: 1 to 9.9 nM

Compound structure: O=C(N[C@@H](C(=O)N1CCC[C@H]1COc1ccc(-c2ccc(-c3cnc([C@@H]4CCCN4C(=O)[C@H](NC(=O)C4CC4)c4ccccc4)[nH]3)cc2)cc1)c1ccccc1)C1CC1
EC50: < 1 nM

Compound structure: C#CC[C@H](NC(=O)OC)C(=O)N1CCC[C@H]1C(=O)NCc1ccc(-c2ccc(-c3cnc([C@@H]4CCCN4C(=O)[C@H](CC#C)NC(=O)OC)[nH]3)cc2)cc1
EC50: 10 to 999 nM

Name the reported EC50 value associated with the compound C[C@@H](NC(=O)[C@@H]1CCCN1C(=O)[C@H](NC(=O)OC(C)(C)C)c1ccccc1)c1ccc(-c2ccc(-c3cnc([C@@H]4CCCN4C(=O)[C@H](NC(=O)OC(C)(C)C)c4ccccc4)[nH]3)cc2)cc1 < 1 nM

* * *

# Tested on: HCV genotype 1b replicon
# Assay method text: HCV replicon assay (HCV 1b_Huh-Luc/Neo-ET cell line, luciferase readout)
# Assay type: cell-based
# Setup conditions: Hepatitis C virus; bicistronic genotype 1b replicon in Huh 7 cells, 72 h incubation, luciferase enzyme activity; read-out: Inhibition of HCV genotype 1b
pEC50: −log10 of the molar value.
Provide the recorded pEC50 for the entries that follow.

Compound structure: C[C@@H](NC(=O)C1CC1)C(=O)N1CCC[C@H]1c1ncc(-c2ccc(Oc3ccc(-c4cnc([C@@H]5CCCN5C(=O)[C@@H](C)NC(=O)C5CC5)[nH]4)cc3)cc2)[nH]1
pEC50: 6.00 to 8.00

Compound structure: COC(=O)N[C@H](C(=O)N1CCC[C@H]1C(=O)N[C@H](C)c1ccc(-c2ccc(-c3cnc([C@@H]4CCCN4C(=O)[C@@H](NC(=O)OC)C4CCOCC4)[nH]3)cc2)cc1)C1CCOCC1
pEC50: 6.00 to 8.00

Compound structure: CN1CCN(C(=O)N[C@@H](C(=O)N2CCC[C@H]2C(=O)NCc2ccc(-c3ccc(-c4cnc([C@@H]5CCCN5C(=O)[C@H](NC(=O)N5CCN(C)CC5)c5ccccc5)[nH]4)cc3)cc2)c2ccccc2)CC1
pEC50: 8.00 to 9.00

Compound structure: COC(=O)N[C@@H](C(=O)N[C@@H](C)c1ncc(-c2ccc(-c3ccc(C(=O)NC[C@@H]4CCCN4C(=O)[C@H](NC(=O)OC)c4ccccc4)nc3)cc2)[nH]1)c1ccccc1
pEC50: > 9.00

Name the reported pEC50 value associated with the compound COC(=O)N[C@H](C(=O)N1CCC[C@H]1C(=O)N[C@@H](C)c1ccc(-c2ccc(-c3cnc([C@@H]4CCCN4C(=O)[C@@H](NC(=O)OC)[C@@H](C)OC)[nH]3)cc2)cc1)[C@@H](C)OC > 9.00
